assay_notes: HepG2 hepatoma cell-based hepatotoxicity assay (MTS)
experimental_parameters: human, HepG2 hepatoma cells; 25 μM, 72 h, control 1% DMSO in culture media; read-out: HepG2 cell viability compared to the control

[
  {
    "molecule": "CN(CCC=C1c2ccccc2CCc2ccccc21)C(CO)C(=O)NCc1ccccc1 (stereo not shown) [Compound 56a]",
    "viability at 72 h, 25 µM (%)": 100
  }
]

====

test_system: mGAT1 (Mus musculus)
Construct: expressed in transfected cells; host or cells: HEK-293
assay_notes: competitive MS binding assay with NO711 as unlabeled marker (LC-ESI-MS/MS)
experimental_parameters: in the presence of 100 μM inhibitor
experimental_endpoint: remaining NO711 binding mGAT1

[
  {
    "compound": "CC(O)CC(C(=O)NCc1ccc(F)cc1)N1CCC(=C2c3ccccc3CCc3ccccc32)CC1 (centres unmarked) [2RS,4SR-43b]",
    "observed_value": "100 μM: 102%"
  },
  {
    "compound": "CC(O)CC(C(=O)NCc1ccc(F)cc1)N(C)CCC=C1c2ccccc2CCc2ccccc21 (centres unmarked) [2RS,4RS-39a]",
    "observed_value": "100 μM: 110%"
  },
  {
    "compound": "CC(=O)NCCC(C(=O)NCc1ccccc1Cl)N(C)CCON=C(c1ccccc1)c1ccccc1 (centres unmarked) [Compound 51a]",
    "observed_value": "100 μM: 74%"
  },
  {
    "compound": "CN(CCON=C(c1ccccc1)c1ccccc1)C(CO)C(=O)NCc1ccc(F)cc1 (centres unmarked) [Compound 59c]",
    "observed_value": "100 μM: 84%"
  },
  {
    "compound": "Cc1ccc(CNC(=O)[C@@H](C[C@H](C)O)N(C)CCC=C2c3ccccc3CCc3ccccc32)cc1 (relative stereo) [2RS,4SR-39c]",
    "observed_value": "100 μM: 73%"
  },
  {
    "compound": "CN(CCON=C(c1ccccc1)c1ccccc1)C(CO)C(=O)NCc1ccccc1 (centres unmarked) [Compound 59a]",
    "observed_value": "100 μM: 80%"
  },
  {
    "compound": "CCOC(=O)C(C)N(C)CCC=C(c1sccc1C)c1sccc1C (centres unmarked) [Compound 73]",
    "observed_value": "100 μM: 94%"
  },
  {
    "compound": "Cc1ccsc1C(=C1CCN([C@H](C[C@@H](C)O)C(=O)NCc2ccc(F)cc2)CC1)c1sccc1C (relative stereo) [2RS,4RS-37c]",
    "observed_value": "100 μM: 76%"
  },
  {
    "compound": "Cc1ccsc1C(=C1CCN([C@H](C[C@@H](C)O)C(=O)NCc2ccccc2)CC1)c1sccc1C (relative stereo) [2RS,4RS-37a]",
    "observed_value": "100 μM: 74%"
  },
  {
    "compound": "Cc1ccsc1C(=C1CCN([C@H](C[C@H](C)O)C(=O)NCc2ccccc2)CC1)c1sccc1C (relative stereo) [2RS,4SR-37a]",
    "observed_value": "100 μM: 78%"
  },
  {
    "compound": "CN(CCC=C1c2ccccc2CCc2ccccc21)C(CO)C(=O)NCc1ccc(F)cc1 (centres unmarked) [Compound 56d]",
    "observed_value": "100 μM: 96%"
  },
  {
    "compound": "Cc1ccsc1C(=CCCN(C)C(C)C(=O)NCc1ccccc1)c1sccc1C (centres unmarked) [Compound 67]",
    "observed_value": "100 μM: 83%"
  },
  {
    "compound": "CN(CCON=C(c1ccccc1)c1ccccc1)C(CCO)C(=O)NCc1ccccc1 (centres unmarked) [Compound 47a]",
    "observed_value": "100 μM: 87%"
  },
  {
    "compound": "CC(O)CC(C(=O)NCc1ccccc1)N(C)CCON=C(c1ccccc1)c1ccccc1 (centres unmarked) [2RS,4SR-45]",
    "observed_value": "100 μM: 86%"
  },
  {
    "compound": "O=C(NCc1ccccc1)C(CO)N1CCC(=C2c3ccccc3-c3ccccc32)CC1 (centres unmarked) [Compound 57]",
    "observed_value": "100 μM: 84%"
  },
  {
    "compound": "CN(CCC=C1c2ccccc2CCc2ccccc21)C(CO)C(=O)NCc1ccc(Cl)cc1 (centres unmarked) [Compound 56c]",
    "observed_value": "100 μM: 87%"
  },
  {
    "compound": "Cc1ccsc1C(=C1CCN(C(CO)C(=O)NCc2ccccc2Cl)CC1)c1sccc1C (centres unmarked) [Compound 54b]",
    "observed_value": "100 μM: 100%"
  },
  {
    "compound": "CCC(C(=O)NCc1ccccc1Cl)N1CCC(=C(c2sccc2C)c2sccc2C)CC1 (centres unmarked) [Compound 64b]",
    "observed_value": "100 μM: 108%"
  },
  {
    "compound": "CC(=O)NCCC(C(=O)NCc1ccc(Cl)c(Cl)c1)N(C)CCON=C(c1ccccc1)c1ccccc1 (centres unmarked) [Compound 51b]",
    "observed_value": "100 μM: 72%"
  },
  {
    "compound": "CN(CCC=C1c2ccccc2C=Cc2ccccc21)C(CO)C(=O)NCc1ccccc1Cl (centres unmarked) [Compound 55b]",
    "observed_value": "100 μM: 65%"
  },
  {
    "compound": "CC(O)CC(C(=O)NCc1ccccc1)N(C)CCON=C(c1ccccc1)c1ccccc1 (centres unmarked) [2RS,4RS-45]",
    "observed_value": "100 μM: 100%"
  },
  {
    "compound": "Cc1ccsc1C(=C1CCN(C(CC(C)O)C(=O)NCc2ccccc2Cl)CC1)c1sccc1C (centres unmarked) [2RS,4SR-37b]",
    "observed_value": "100 μM: 108%"
  },
  {
    "compound": "Cc1ccsc1C(=C1CCN(C(CO)C(=O)NCc2ccccc2)CC1)c1sccc1C (centres unmarked) [Compound 54a]",
    "observed_value": "100 μM: 86%"
  },
  {
    "compound": "Cc1ccsc1C(=C1CCN(C(CO)C(=O)NCc2ccc(F)cc2)CC1)c1sccc1C (centres unmarked) [Compound 54c]",
    "observed_value": "100 μM: 96%"
  },
  {
    "compound": "Cc1ccsc1C(=CCCN(C)C(C)C(=O)O)c1sccc1C (centres unmarked) [Compound 75]",
    "observed_value": "100 μM: 81%"
  },
  {
    "compound": "CN(CCC=C1c2ccccc2C=Cc2ccccc21)C(CO)C(=O)NCc1ccc(Cl)cc1 (centres unmarked) [Compound 55c]",
    "observed_value": "100 μM: 49%"
  },
  {
    "compound": "CN(CCON=C(c1ccccc1)c1ccccc1)C(CCO)C(=O)NCc1ccc(Cl)c(Cl)c1 (centres unmarked) [Compound 47c]",
    "observed_value": "100 μM: 82%"
  },
  {
    "compound": "CN(CCC=C1c2ccccc2C=Cc2ccccc21)C(CO)C(=O)NCc1ccc(F)cc1 (centres unmarked) [Compound 55d]",
    "observed_value": "100 μM: 90%"
  },
  {
    "compound": "CC(C(=O)NCc1ccccc1)N(C)CCON=C(c1ccccc1)c1ccccc1 (centres unmarked) [Compound 65]",
    "observed_value": "100 μM: 104%"
  },
  {
    "compound": "Cc1ccsc1C(=C1CCN(C(CC(C)O)C(=O)NCc2ccccc2Cl)CC1)c1sccc1C (centres unmarked) [2RS,4RS-37b]",
    "observed_value": "100 μM: 94%"
  },
  {
    "compound": "O=C(NCc1ccccc1)C(CO)N1CCC(=C2c3ccccc3CCc3ccccc32)CC1 (centres unmarked) [Compound 58]",
    "observed_value": "100 μM: 83%"
  },
  {
    "compound": "CC(O)CC(C(=O)NCc1ccc(F)cc1)N1CCC(=C2c3ccccc3CCc3ccccc32)CC1 (centres unmarked) [2RS,4RS-43b]",
    "observed_value": "100 μM: 86%"
  }
]
